// provenance: ChEMBL document CHEMBL1151820

Target: P2X purinoceptor 7 (Homo sapiens, UniProt Q99572)
Assay: Antagonist activity at P2X7 receptor in human lymphocytes assessed as inhibition of ATP-induced Ba2+ influx
Assay type: functional, cell-based
property: IC50 (nM)

1) CN([C@@H](Cc1ccc(OS(=O)(=O)c2cccc3cnccc23)cc1)CN1CCN(c2ccccc2)CC1)S(=O)(=O)c1cccc2cnccc12 : 15.8
2) CN([C@@H](Cc1ccc(OS(=O)(=O)c2cccc3cnccc23)cc1)C(=O)N1CCN(c2ccccc2)CC1)S(=O)(=O)c1cccc2cnccc12 : 12.6

----------
Molecular target: P2X purinoceptor 7 (Homo sapiens, UniProt Q99572)
Experiment: Antagonist activity at human P2X7 receptor expressed in HEK293 cells assessed as inhibition of ATP-induced ethidium uptake
property: IC50

1. Cc1n[nH]c(C)c1CC(=O)NCc1ccc(F)c(C(F)(F)F)c1 : < 3.16 µM

----------
Experiment: Terminal phase volume of distribution in Sprague-Dawley rat
Format: ADME, organism-based
Conditions: in vivo, read-out: Vbeta
property: Vd (L/kg)

1. COc1ccc(CC(=O)NC(N/C(=N/C#N)Nc2cccc3ncccc23)C(C)(C)C)cc1OC (stereo unspecified) : 21

----------
Assay: Metabolic stability in human liver microsomes assessed as half life
Assay type: ADME, Microsome
Catalogue of half-life readings, one per entry.
property: half-life (h)

1. O=C(Cc1ccc(C(F)(F)F)c(F)c1)Nc1c(Cl)ccc2c(=O)n(CCO)ccc12 : 3.7
2. C[C@H](CO)n1ccc2c(NC(=O)Cc3ccc(Cl)c(C(F)(F)F)c3)cccc2c1=O : 1
3. Cc1ccc2c(=O)n([C@H](C)CO)ccc2c1NC(=O)Cc1ccc(C(F)(F)F)c(F)c1 : 1.5

----------
Test: Volume of distribution at steady state in iv dosed rat
Format: ADME, organism-based
Settings: in vivo, read-out: Vdss
property: Vd (L/kg)

1. Cc1ccccc1N=C(NC#N)N1CCN(C(=O)Nc2ccc(Cl)cc2)C(c2ccccc2)C1 (configuration not stated) : 5.3
2. Cc1ccc2c(N/C(=N\C#N)N3CCN(C(=O)c4ccc(Cl)cc4)CC3C(C)C)cccc2n1 (configuration not stated) : 11.8

----------
Experiment: Plasma clearance in rat
Assay type: ADME, organism-based
Catalogue of clearance readings, one per entry.
property: clearance (mL/min/kg)

1. O=C(NCCc1ccccc1Cl)c1cc(-n2ncc(=O)[nH]c2=O)ccc1Cl : 9
2. O=C(CC12CC3CC(CC(C3)C1)C2)Nc1ccccc1 : 47
3. O=C(NCC12CC3CC(CC(C3)C1)C2)c1cc(Cl)ccc1Cl : 100

----------
Molecular target: P2X purinoceptor 7 (Homo sapiens)
Sequence (Q99572 whole entry): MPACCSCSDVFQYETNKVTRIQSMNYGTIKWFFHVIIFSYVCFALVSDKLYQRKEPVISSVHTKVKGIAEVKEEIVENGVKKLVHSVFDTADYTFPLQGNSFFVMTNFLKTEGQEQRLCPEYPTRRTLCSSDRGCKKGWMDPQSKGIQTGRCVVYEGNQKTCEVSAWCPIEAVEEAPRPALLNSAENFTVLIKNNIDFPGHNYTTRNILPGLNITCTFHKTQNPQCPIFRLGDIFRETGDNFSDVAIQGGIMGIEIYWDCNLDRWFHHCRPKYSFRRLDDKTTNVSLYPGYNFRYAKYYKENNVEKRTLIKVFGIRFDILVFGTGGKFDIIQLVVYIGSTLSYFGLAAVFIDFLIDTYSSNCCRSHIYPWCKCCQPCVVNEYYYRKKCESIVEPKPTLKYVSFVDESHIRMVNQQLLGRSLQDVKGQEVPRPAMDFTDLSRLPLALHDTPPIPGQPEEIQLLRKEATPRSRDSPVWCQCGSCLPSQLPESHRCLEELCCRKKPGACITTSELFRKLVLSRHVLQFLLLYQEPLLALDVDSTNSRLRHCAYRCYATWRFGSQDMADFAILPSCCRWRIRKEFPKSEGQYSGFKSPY
Assay: Antagonist activity at human P2X7 receptor expressed in human U373 cells assessed as inhibition of BzATP-induced Yo-Pro uptake
Type: functional, cell-based, U-373MG ATCC
Values of IC50 strictly less than 0.1 µM map to 1, and values of at least 0.1 µM map to 0.

1) c1ccc(CCC2=N[C@H](c3ccccc3)[C@H](c3ccccc3)N2)cc1 : 1
2) Fc1cccc(CSC2=N[C@@H](c3ccccc3)[C@@H](c3ccccc3)N2)c1 : 0
3) c1ccc(C2=N[C@@H](c3ccccc3)[C@@H](c3ccccc3)N2)cc1 : 0
4) c1ccc(CCCCC2=N[C@H](c3ccccc3)[C@H](c3ccccc3)N2)cc1 : 0
